# System: NCI/ADR-RES ovarian
# experimental protocol: NCI tumour cell line growth inhibition, 48 h; in the data active means GI50 below about 0.43 µM; inactive means the rest
Labels: 1 (yes) = active, 0 (no) = inactive

- molecule: "CCOC(=O)C#Cc1c(C(=O)OCC)nnn1Cc1ccc(C(F)(F)F)cc1"
  class: "0 (no)"
- molecule: "NC(=O)c1cc(Cl)ccc1NC(=O)COc1ccccc1"
  class: "0 (no)"
- molecule: "COC(=O)C12OCC34C(CC5C(C)=C(O)C(=O)CC5(C)C3C(O)C1O)OC(=O)C(OC(=O)C=C(C)C)C24 (stereo not drawn)"
  class: "0 (no)"
- molecule: "CCCCCCCCCOc1c(OC)cc(C2CC(=O)Nc3c2c(C)nn3-c2nc3ccccc3[nH]2)cc1OC (stereo not drawn)"
  class: "0 (no)"
- molecule: "CN1CCN(Cc2ccc(NC(=O)c3cncc(C#Cc4cnc5ccc(Cl)nn45)c3)cc2C(F)(F)F)CC1"
  class: "0 (no)"
- molecule: "COc1ccc2c(c1)C(=O)c1c-2c(=O)n(CCCCCCC(=O)NO)c2ccccc12"
  class: "1 (yes)"
- molecule: "CC(=O)O[C@H]1[C@@H]2OC(=O)C3(CC3)C2C[C@H]2O[C@]2(C)CC/C=C(\\C)CCC[C@@H]1C (stereo partly drawn)"
  class: "0 (no)"
- molecule: "C=C(C)[C@@H]1CC[C@]2(C)[C@H](CC[C@@H]3[C@@H]([C@@](C)(O)CCC=C(C)C)CC[C@]32C)[C@@]1(C)CCC(=O)N1CCN(C)CC1"
  class: "0 (no)"

---

# System: BT-549 breast
# experimental protocol: NCI tumour cell line growth inhibition, 48 h

- record smiles: "c1ccc(-c2nc([P+](c3ccccc3)(c3ccccc3)c3ccccc3)c(N3CCOCC3)o2)cc1"
  unit descriptor: "µM"
  TGI: 6.77
- record smiles: "Cc1ccc(/C(=C/C=C(/C#N)C(N)=O)Sc2ncnn2C)cc1"
  unit descriptor: "µM"
  TGI: 9.57
- record smiles: "CCOC(=O)NC(C(F)(F)F)(C(F)(F)F)P(=O)(OCC(C)C)OCC(C)C"
  unit descriptor: "µM"
  TGI: 29

---

# System: K-562 leukemia
# experimental protocol: NCI tumour cell line growth inhibition, 48 h
property label: GI50

- compound: "CCN1C2=C(SC(=S)C1=C1SC(C(=O)OC)=C(C(=O)OC)S1)SC(=Nc1ccc(OC)cc1)C2=O"
  target of assay: "K-562 leukemia"
  result: "2360 nM"
- compound: "N=C(N)c1ccc(-c2ccc(-c3ccc(F)cc3)s2)nc1"
  target of assay: "K-562 leukemia"
  result: "374 nM"
- compound: "C/C(=C\\COc1ccc2ccc(=O)oc2c1)C1=CC(=O)C(C)(C)O1"
  target of assay: "K-562 leukemia"
  result: "1850 nM"
- compound: "CC(C)CC(=O)[O-].CC(C)CC(=O)[O-].N.N.N.N.[Co+3].[O-][Cl+3]([O-])([O-])O.[O-][Cl+3]([O-])([O-])[O-]"
  target of assay: "K-562 leukemia"
  result: "> 100000 nM"
- compound: "COC(=O)C12OCC34C(CC5C(C)=C(O)C(=O)CC5(C)C3C(O)C1O)OC(=O)C(OC(=O)C=C(C)C)C24 (centres undefined)"
  target of assay: "K-562 leukemia"
  result: "< 215 nM"
- compound: "C=C(C)[C@@H]1CC[C@]2(C)[C@H](CC[C@@H]3[C@@H]([C@@](C)(O)CCC=C(C)C)CC[C@]32C)[C@@]1(C)CCC(=O)N1CCN(C)CC1"
  target of assay: "K-562 leukemia"
  result: "4260 nM"
- compound: "NC(=O)c1cc(Cl)ccc1NC(=O)COc1ccccc1"
  target of assay: "K-562 leukemia"
  result: "854 nM"
- compound: "C/C(=N\\NC(=O)c1ccccc1N)c1ccccc1O"
  target of assay: "K-562 leukemia"
  result: "3720 nM"
- compound: "COC(=O)[C@@H](C)C[C@H](Cc1ccccc1)NC(=O)c1nc([C@@H](C[C@H](C(C)C)N(C)C(=O)[C@@H](NC(=O)[C@H]2CCCCN2C)C(C)C)OC(C)=O)sc1C(C)C"
  target of assay: "K-562 leukemia"
  result: "< 3.33 nM"
- compound: "C=C1C(=O)O[C@H]2[C@H]1CC/C(COC(=O)NCc1c[nH]c3ccc(Br)cc13)=C\\CC[C@@]1(C)O[C@@H]21"
  target of assay: "K-562 leukemia"
  result: "292 nM"
- compound: "O=C(C1CC1)N1CC[C@@H](Cc2n[nH]c(=O)n2-c2ccc(-c3ccc4occc4c3)cc2)C1"
  target of assay: "K-562 leukemia"
  result: "8180 nM"
- compound: "COc1ccc2[nH]c(=O)c(/C=C/C(=O)c3ccccc3OC)cc2c1"
  target of assay: "K-562 leukemia"
  result: "162 nM"
- compound: "COc1ccc(-c2cn(-c3cccc(C(=O)/C=C/c4cc(OC)c(OC)c(OC)c4)c3)c(=O)[nH]2)cc1"
  target of assay: "K-562 leukemia"
  result: "1270 nM"
- compound: "O=C(Cc1ccc(OCc2ccccc2)cc1)NCc1ccc2c(c1)OCO2"
  target of assay: "K-562 leukemia"
  result: "4640 nM"
- compound: "COc1cc(/C=C\\c2cc(/C=C\\c3ccc(O)c(OC)c3)n(C(=O)COc3ccccc3)n2)ccc1O"
  target of assay: "K-562 leukemia"
  result: "366 nM"
- compound: "COC(=O)CCC1=C(C)C(C)=N/C1=C\\c1[nH]c(-c2ccc[nH]2)cc1OC"
  target of assay: "K-562 leukemia"
  result: "462 nM"
- compound: "Cc1oc2nc[nH]c(=O)c2c1C(=O)/C=C/c1ccc(Br)cc1"
  target of assay: "K-562 leukemia"
  result: "798 nM"
- compound: "CN(C)c1ccc(N=Nc2ccc(Br)cn2)c(O)c1"
  target of assay: "K-562 leukemia"
  result: "471 nM"
- compound: "CCC(C)C1=NC(C(=O)N/C=C\\c2c[nH]c3cc(Br)c(Br)cc23)(C(C)C)NC1=O (centres undefined)"
  target of assay: "K-562 leukemia"
  result: "16500 nM"
